- Target: Vascular endothelial growth factor receptor 2 (Homo sapiens)
- Sequence (P35968 whole entry): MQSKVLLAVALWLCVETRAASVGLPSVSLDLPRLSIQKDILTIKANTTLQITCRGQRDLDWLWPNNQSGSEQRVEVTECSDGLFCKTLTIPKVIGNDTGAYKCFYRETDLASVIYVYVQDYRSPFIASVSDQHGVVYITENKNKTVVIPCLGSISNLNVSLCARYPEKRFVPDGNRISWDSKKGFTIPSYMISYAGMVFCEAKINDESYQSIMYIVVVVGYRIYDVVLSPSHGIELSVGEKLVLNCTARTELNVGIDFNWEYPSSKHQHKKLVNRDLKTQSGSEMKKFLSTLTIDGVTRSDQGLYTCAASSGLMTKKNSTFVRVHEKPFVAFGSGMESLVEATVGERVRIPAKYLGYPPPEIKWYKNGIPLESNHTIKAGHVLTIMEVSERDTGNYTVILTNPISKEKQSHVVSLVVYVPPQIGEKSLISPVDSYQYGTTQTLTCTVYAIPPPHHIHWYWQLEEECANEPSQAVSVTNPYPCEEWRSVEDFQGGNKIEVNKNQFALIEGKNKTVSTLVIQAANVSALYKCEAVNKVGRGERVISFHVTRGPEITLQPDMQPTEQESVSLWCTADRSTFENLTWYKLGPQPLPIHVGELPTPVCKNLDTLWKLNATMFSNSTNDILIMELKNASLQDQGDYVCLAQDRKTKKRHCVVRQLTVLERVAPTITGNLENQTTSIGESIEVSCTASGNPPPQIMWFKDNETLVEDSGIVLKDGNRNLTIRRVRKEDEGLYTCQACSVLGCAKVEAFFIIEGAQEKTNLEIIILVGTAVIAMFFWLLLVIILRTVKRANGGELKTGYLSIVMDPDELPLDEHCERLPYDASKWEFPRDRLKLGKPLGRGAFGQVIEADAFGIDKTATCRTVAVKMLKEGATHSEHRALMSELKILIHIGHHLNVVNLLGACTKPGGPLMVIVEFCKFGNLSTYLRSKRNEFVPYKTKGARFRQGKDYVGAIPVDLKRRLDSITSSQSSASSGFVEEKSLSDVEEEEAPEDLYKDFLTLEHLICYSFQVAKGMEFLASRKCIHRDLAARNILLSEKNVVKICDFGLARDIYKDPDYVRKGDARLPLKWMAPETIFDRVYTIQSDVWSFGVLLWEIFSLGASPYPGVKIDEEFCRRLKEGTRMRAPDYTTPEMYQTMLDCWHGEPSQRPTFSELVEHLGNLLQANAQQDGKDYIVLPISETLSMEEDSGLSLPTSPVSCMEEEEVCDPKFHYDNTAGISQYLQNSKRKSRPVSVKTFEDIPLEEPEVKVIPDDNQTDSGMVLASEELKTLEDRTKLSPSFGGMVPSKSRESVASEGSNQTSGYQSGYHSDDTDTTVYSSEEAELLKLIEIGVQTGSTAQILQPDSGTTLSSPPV
The label Fulfilled is reserved for IC50 strictly under 0.4 µM; Not fulfilled covers values equal to or above it.

Input: Does the reported IC50 of `COc1cc2c(Nc3ccc(NC(=O)Nc4ccc(C)c(C)c4)cc3)ncnc2cc1OCc1ccccc1` stay below 0.4 µM?
Output: Not fulfilled

Input: Lab note: IC50 threshold 0.4 µM. Does this molecule come in strictly under it? `COc1cc2c(Nc3ccc(NC(=O)Nc4ccccc4)c(Cl)c3)ncnc2cc1OCCCN1CCN(C)CC1`
Output: Fulfilled

Input: Quick check: IC50 of `COc1cc2c(Nc3ccc(NC(=O)Nc4ccccc4)cc3)ncnc2cc1OCCCN1CCN(C)CC1` under 0.4 µM?
Output: Not fulfilled

Input: Determine whether this molecule shows IC50 lower than 0.4 µM (ties excluded): `COc1cc2c(Nc3ccc(NC(=O)Nc4ccc(C)c(C)c4)c(Cl)c3)ncnc2cc1OCCCN1CCN(C)CC1`
Output: Fulfilled

Input: A record lists `COc1cc2c(Nc3ccc(NC(=O)Nc4ccc(Cl)cc4)c(Cl)c3)ncnc2cc1OCCCN1CCOCC1` . Is its IC50 below 0.4 µM?
Output: Not fulfilled

Input: Bench note: check whether `COc1cc2c(Nc3ccc(NC(=O)Nc4ccc(C)c(C)c4)c(Cl)c3)ncnc2cc1OCCCN1CCOCC1` shows IC50 below 0.4 µM
Output: Fulfilled

Input: Is IC50 strictly under 0.4 µM for the entry `COc1cc2c(Nc3ccc(NC(=O)Nc4ccccc4)cc3)ncnc2cc1OCc1ccccc1` ?
Output: Not fulfilled

Input: Take the molecule `COc1cc2c(Nc3ccc(NC(=O)Nc4ccccc4C)cc3)ncnc2cc1OCc1ccccc1` and say whether its IC50 is less than 0.4 µM.
Output: Not fulfilled

* * *

Measured Quantity: IC50 (nM)
Write the answer as a number in nM, unit excluded.

Input: # returns recorded IC50 (system: Vascular endothelial growth factor receptor 2 (Homo sapiens)) for `COc1cc2c(Nc3ccc(NC(=O)Nc4ccc(C)c(C)c4)cc3)ncnc2cc1OCCCN1CCN(C)CC1`
Output: 214

Input: I'm curious: which IC50 was measured for `COc1cc2c(Nc3ccc(NC(=O)Nc4ccccc4C)c(Cl)c3)ncnc2cc1OCCCN1CCN(C)CC1` tested on Vascular endothelial growth factor receptor 2 (Homo sapiens)?
Output: 178

Input: Hello, I am looking for reported IC50 with Vascular endothelial growth factor receptor 2 (Homo sapiens) for `COC(=O)CNC(=O)c1ccc(Nc2ncnc3cc(OCCCN4CCN(C)CC4)c(OC)cc23)cc1` . Could you help?
Output: 275

* * *

- Target: Epidermal growth factor receptor (Homo sapiens)
- Sequence (P00533 whole entry): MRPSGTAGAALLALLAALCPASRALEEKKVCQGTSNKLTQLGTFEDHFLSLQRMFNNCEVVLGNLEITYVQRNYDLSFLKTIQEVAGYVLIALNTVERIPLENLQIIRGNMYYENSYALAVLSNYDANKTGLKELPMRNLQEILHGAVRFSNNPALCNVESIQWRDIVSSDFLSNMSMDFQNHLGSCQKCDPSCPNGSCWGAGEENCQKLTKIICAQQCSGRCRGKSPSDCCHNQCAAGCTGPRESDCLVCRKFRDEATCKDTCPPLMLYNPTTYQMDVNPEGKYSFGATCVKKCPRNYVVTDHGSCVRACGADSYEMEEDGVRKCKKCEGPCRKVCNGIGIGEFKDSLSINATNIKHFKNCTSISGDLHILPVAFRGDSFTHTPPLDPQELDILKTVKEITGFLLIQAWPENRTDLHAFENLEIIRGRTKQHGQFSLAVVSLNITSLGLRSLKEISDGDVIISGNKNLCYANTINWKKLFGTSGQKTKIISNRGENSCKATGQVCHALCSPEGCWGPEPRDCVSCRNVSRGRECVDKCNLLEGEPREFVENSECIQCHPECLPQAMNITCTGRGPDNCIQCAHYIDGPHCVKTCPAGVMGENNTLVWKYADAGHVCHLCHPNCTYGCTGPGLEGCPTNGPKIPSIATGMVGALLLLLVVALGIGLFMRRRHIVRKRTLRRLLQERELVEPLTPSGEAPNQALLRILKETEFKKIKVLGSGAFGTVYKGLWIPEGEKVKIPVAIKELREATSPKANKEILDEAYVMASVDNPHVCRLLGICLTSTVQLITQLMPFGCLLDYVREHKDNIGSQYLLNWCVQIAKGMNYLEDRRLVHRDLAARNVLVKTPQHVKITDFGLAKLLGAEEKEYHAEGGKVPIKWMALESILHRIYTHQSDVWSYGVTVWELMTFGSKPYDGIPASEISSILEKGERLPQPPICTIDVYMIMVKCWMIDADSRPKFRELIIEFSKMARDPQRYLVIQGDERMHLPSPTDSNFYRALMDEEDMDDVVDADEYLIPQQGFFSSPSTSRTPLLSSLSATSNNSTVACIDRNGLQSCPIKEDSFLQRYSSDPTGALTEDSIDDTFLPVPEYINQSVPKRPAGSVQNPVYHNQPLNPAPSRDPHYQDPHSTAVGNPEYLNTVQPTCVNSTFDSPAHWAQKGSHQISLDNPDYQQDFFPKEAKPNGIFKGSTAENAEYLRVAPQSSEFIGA
I'd appreciate it if you marked entries y when IC50 is lower than 0.08 µM and n when it is not.

Input: Decide: IC50 of `COc1cc2c(Nc3ccc(NC(=O)Nc4ccc(Cl)cc4)cc3)ncnc2cc1OCc1ccccc1` strictly below 0.08 µM?
Output: n

Input: Bench note: check whether `COC(=O)CNC(=O)c1ccc(Nc2ncnc3cc(OCCCN4CCOCC4)c(OC)cc23)cc1` shows IC50 below 0.08 µM
Output: n

Input: Criterion: IC50 strictly below 0.08 µM. Is it met by `COc1cc2c(Nc3ccc(NC(=O)Nc4ccc(Cl)cc4)c(Cl)c3)ncnc2cc1OCCCN1CCOCC1` ?
Output: y

Input: Determine whether this compound shows IC50 lower than 0.08 µM (ties excluded): `COc1cc2c(Nc3ccc(NC(=O)Nc4ccc(Cl)cc4)c(Cl)c3)ncnc2cc1OCCCN1CCN(C)CC1`
Output: y

Input: Lab log: compare recorded IC50 with 0.08 µM; is it strictly lower for `COc1cc2c(Nc3ccc(NC(=O)Nc4ccccc4C)cc3)ncnc2cc1OCc1ccccc1` ?
Output: n

Input: Does this compound meet the criterion IC50 < 0.08 µM? `COc1cc2c(Nc3ccc(NC(=O)Nc4ccc(C)c(C)c4)c(Cl)c3)ncnc2cc1OCCCN1CCOCC1`
Output: y

Input: Does this compound meet the criterion IC50 < 0.08 µM? `COc1cc2c(Nc3ccc(NC(=O)Nc4ccc(C)c(C)c4)cc3)ncnc2cc1OCCCN1CCN(C)CC1`
Output: n

Input: Given `COc1cc2c(Nc3ccc(NC(=O)Nc4ccc(Cl)cc4)c(Cl)c3)ncnc2cc1OCCN1CCCCC1` , is recorded IC50 strictly lower than 0.08 µM?
Output: n

Input: Is IC50 strictly under 0.08 µM for the entry `COc1cc2c(Nc3ccc(NC(=O)Nc4ccccc4C)cc3)ncnc2cc1OCCCN1CCN(C)CC1` ?
Output: n

Input: Dear colleague, could you confirm whether IC50 of `COc1cc2c(Nc3ccc(NC(=O)Nc4cccc(Cl)c4)cc3)ncnc2cc1OCc1ccccc1` falls below 0.08 µM? Thanks.
Output: n

Input: State whether 0.08 µM exceeds IC50 recorded for `COc1cc2c(Nc3ccc(NC(=O)Nc4ccccc4)cc3)ncnc2cc1OCc1ccccc1` .
Output: n

Input: Lab log: compare recorded IC50 with 0.08 µM; is it strictly lower for `COc1cc2c(Nc3ccc(NC(=O)Nc4ccccc4)c(Cl)c3)ncnc2cc1OCCCN1CCN(C)CC1` ?
Output: y

Each recorded value in this set is attributed to ChEMBL document CHEMBL3877259.
